- Target Or System: T1, human PD-1 ECD/Fc fusion protein (human)
- T1 construct: also called huPD-1/Fc; HuPD-1 ECD/Fc
- T1 sequence (chain, as listed by the source limits assumed): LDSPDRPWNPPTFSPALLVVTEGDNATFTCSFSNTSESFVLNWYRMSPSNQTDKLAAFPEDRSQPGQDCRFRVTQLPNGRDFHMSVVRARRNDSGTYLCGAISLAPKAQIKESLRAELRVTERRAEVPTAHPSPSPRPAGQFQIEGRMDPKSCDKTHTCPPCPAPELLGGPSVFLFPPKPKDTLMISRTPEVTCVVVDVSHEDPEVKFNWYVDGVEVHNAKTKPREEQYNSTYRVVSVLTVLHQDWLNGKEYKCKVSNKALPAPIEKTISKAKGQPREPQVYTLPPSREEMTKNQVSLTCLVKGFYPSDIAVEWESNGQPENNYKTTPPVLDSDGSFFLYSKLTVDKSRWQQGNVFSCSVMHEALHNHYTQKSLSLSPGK
- Method Notes: SPR Biacore, mAb captured, huPD-1/Fc analyte
- Procedure: The binding kinetics of purified antibodies were measured by surface plasmon resonance using a Biacore […] instrument (GE Healthcare) using standard procedures. […] The association and dissociation rate constants, kₒₙ(M⁻¹ s⁻¹) and koff (s⁻¹) respectively, were determined with a continuous flow rate of 30 μl/min. […] The equilibrium dissociation constant KD (M) of the reaction between antibodies and related target proteins was then calculated from the kinetic rate constants using the formula KD=koff/kₒₙ.
Measured kon accompanies every entry in the list below.
Return type: number; implicit unit M⁻¹ s⁻¹.

INSERT INTO measurements (binder, endpoint, unit_of_measure, readout_number) VALUES
  ('mAb715 (antibody, V domains shown, murine hybridoma anti-PD-1 mAb) VH: EVMLVESGGGLLKPGGSLKLSCAASGFTFSSYAMSWVRQTPEKRLEWVATISGGGRDTYYPDSVKGRFTISRDNAKNTLYLQMTSLRSEDTAFYYCAGQGGTYLFASWGQGTLVTVSA VL: DIVMTQSHKFMSTSVGDSVTITCKASQDVNTAVAWYQQKPGQPPKVLIYWASTRHTGVPDRFTGSGSGTDYTLTISSVQAEDLALYYCQQHYTTPYTFGGGTKLEIK', 'kon', 'M⁻¹ s⁻¹', 158000);

Please report kon for the following binder: mAb703 (antibody, V domains shown, murine hybridoma anti-PD-1 mAb) VH: DVQLQESGPGLVKPSQSLSLTCSVTGYSITTGYYWNWIRQFPGNKLEWMGYMSYDGNNNYNPSLKNRISITRDTSKNQFLLRLNSVTTEDTATYFCARDRGTTILGGTMDYWGQGTSVTVS VL: SIVMTQTPKFLFVSAGDRVTIACKASQSVSNDVAWYQQKPGQSPKLLIYYAFYRYTGVPDRFTGSGYGTDFTFTISTVQAEDLAVYFCQQDYSSPWTFGGGTKLEIK
347000

Please report kon for the following binder: mAb701 (antibody, V domains shown, murine hybridoma anti-PD-1 mAb) VH: EVLLVESGGGLVKPGGSLKLSCAASGFTFSSYMMSWIRQTPERRLEWVASMSGGGRDTYYPDSVKGRFTISRDNAKNTLYLQMSSLRSEDTALYYCARRGTYAMDYWGQGTSVTVSS VL: DIQMTQSPASQSASLGESVTITCLASQTIGTWLTWYQQKPGKSPQLLIYAATSLADGVPSRFSGSGSGTKFSFKISSLQAEDFVSYYCQQLYSTPWTFGGGTKLEIK
75200
